pIC50 for assorted molecules
- TARGET_UNDER_TEST: human TLR8 (Homo sapiens)
- Sequence (Q9NR97 27-1041): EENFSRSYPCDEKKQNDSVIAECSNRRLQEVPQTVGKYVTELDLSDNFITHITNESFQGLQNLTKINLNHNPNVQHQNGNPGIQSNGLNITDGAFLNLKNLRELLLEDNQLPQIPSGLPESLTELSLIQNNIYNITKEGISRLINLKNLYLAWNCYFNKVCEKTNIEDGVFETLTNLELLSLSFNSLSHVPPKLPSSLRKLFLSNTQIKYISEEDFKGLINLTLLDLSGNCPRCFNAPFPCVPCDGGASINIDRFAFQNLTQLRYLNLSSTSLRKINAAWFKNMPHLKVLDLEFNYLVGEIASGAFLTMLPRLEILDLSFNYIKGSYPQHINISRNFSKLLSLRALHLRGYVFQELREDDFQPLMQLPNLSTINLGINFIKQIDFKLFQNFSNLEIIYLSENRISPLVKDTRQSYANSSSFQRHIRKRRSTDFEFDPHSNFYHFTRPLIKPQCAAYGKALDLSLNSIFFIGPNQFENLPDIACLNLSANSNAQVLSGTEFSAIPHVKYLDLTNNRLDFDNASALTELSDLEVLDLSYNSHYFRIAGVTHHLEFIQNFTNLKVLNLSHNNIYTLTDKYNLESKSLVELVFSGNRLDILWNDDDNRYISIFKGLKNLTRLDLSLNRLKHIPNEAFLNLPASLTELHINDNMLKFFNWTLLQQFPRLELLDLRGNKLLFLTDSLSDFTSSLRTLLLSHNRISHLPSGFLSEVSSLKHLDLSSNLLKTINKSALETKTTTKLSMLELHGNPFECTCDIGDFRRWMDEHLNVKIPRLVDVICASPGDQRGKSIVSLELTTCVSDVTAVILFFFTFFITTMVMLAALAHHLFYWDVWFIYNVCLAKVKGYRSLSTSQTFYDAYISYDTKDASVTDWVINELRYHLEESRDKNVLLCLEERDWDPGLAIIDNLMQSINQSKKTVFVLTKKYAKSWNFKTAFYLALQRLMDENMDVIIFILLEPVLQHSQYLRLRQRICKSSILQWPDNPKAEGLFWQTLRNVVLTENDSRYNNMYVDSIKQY
- ASSAY_INFO: TLR8 inhibition reporter assay (HEK-Blue SEAP reporter)
- SETTINGS: HEK-Blue cells overexpressing human TLR8; R848 15.9 μM; 22 hour incubation
# pIC50 is unitless: minus log10 of the molar concentration; print number only

MOLECULE	pIC50
COc1ccc(-c2[nH]c3ccc(N4CCN(C5CCN(CC(C)C)CC5)CC4)cc3c2C)cc1OC	4.31
Cc1cc(-c2[nH]c3ccc(N4CCC(N5CCN(C(C)C)CC5)C4=O)cc3c2C(C)C)cc(C)n1 (single isomer, unassigned) [Example 5]	8.24
CNCCNC1CCN(c2ccc3[nH]c(-c4ccc(OC)c(OC)c4)c(C(C)C)c3c2)CC1	8.55
CC(C)c1c(-c2ccnc3[nH]ncc23)[nH]c2ccc(N3CCNC3=O)cc12	7.85
COc1ccc(-c2[nH]c3ccc(Nc4ccc(OCCN5CCCC5)cc4)cc3c2C(C)C)cc1OC	7.46
COc1ccc(-c2[nH]c3ccc(N4CCC(=O)N(CCN(C)C)CC4)cc3c2C(C)C)cc1OC	7.26
COc1ccc(-c2[nH]c3ccc(NC4CCC(N(C)CCN(C)C)CC4)cc3c2C(C)C)cc1OC (stereo not drawn)	6.58
CCC[C@@H](N)C(=O)Nc1ccc2[nH]c(-c3ccc(OC)c(OC)c3)c(C(C)C)c2c1	7.17

Give pIC50 (human TLR8 (Homo sapiens)) of the following molecule: CCc1c(-c2ccc(OC)c(OC)c2)[nH]c2ccc(N3CCN(C4CCN(C)CC4)CC3)cc12
7.85

Give pIC50 (human TLR8 (Homo sapiens)) of the following molecule: COc1ccc(-c2[nH]c3ccc(N4CCC(NCCCN(C)C)CC4)cc3c2C(C)C)cc1OC [Example 77]
8.02

Give pIC50 (human TLR8 (Homo sapiens)) of the following molecule: CC(C)c1c(-c2ccnc3[nH]ncc23)[nH]c2ccc(NC(=O)[C@H]3CCNC3)cc12
7.02

Give pIC50 (human TLR8 (Homo sapiens)) of the following molecule: CCN1CCC(OC2CCN(c3ccc4[nH]c(-c5ccc(OC)c(OC)c5)c(C(C)C)c4c3)CC2)CC1
7.46

Give pIC50 (human TLR8 (Homo sapiens)) of the following molecule: COc1ccc(-c2[nH]c3ccc(N4CC(N5CCCNCC5)C4)cc3c2C(C)C)cc1OC
7.57

Give pIC50 (human TLR8 (Homo sapiens)) of the following molecule: COc1ccc(-c2[nH]c3ccc(N4CCN(C5CC(C)(C)NC(C)(C)C5)CC4)cc3c2C(C)C)cc1OC
7.96

Give pIC50 (human TLR8 (Homo sapiens)) of the following molecule: CNCCNC1CCC(Nc2ccc3[nH]c(-c4ccc(OC)c(OC)c4)c(C(C)C)c3c2)CC1 (single isomer, unassigned)
6.63

---

IC50 for assorted compounds
- TARGET_UNDER_TEST: human TLR7 (Homo sapiens, UniProt Q9NYK1)
- Sequence (Q9NYK1 27-1049): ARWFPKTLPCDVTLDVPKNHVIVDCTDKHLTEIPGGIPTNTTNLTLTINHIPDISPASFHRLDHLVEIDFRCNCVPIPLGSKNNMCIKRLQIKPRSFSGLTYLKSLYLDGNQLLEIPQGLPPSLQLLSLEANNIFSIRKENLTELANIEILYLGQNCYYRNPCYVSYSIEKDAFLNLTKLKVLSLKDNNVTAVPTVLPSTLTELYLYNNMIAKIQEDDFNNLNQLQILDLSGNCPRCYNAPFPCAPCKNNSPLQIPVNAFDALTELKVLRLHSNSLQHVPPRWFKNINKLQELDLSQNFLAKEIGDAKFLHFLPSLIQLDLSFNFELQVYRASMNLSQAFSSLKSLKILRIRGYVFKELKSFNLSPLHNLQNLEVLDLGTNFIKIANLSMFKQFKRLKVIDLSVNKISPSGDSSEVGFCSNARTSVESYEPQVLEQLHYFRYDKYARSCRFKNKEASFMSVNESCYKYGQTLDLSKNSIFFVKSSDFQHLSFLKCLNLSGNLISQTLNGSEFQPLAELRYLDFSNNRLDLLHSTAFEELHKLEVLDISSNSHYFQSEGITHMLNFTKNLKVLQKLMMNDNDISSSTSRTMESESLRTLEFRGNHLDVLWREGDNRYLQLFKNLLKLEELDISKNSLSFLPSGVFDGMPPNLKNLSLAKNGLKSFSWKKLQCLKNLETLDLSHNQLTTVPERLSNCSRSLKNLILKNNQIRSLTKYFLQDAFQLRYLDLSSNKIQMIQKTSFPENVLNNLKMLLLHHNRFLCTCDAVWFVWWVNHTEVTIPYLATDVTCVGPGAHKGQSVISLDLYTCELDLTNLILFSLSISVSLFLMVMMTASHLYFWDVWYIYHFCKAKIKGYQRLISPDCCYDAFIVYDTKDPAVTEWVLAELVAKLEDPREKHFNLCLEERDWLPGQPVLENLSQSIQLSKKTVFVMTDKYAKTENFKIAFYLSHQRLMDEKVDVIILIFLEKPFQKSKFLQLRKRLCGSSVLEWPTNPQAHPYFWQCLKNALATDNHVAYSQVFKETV
- ASSAY_INFO: TLR7 inhibition reporter assay (HEK-Blue SEAP reporter)
- SETTINGS: HEK-Blue cells overexpressing human TLR7; gardiquimod 7.5 μM; 22 hour incubation

COMPOUND	READOUT_TYPE	READING
Cc1cc(-c2[nH]c3ccc(N4CCC(N5CCN(C(C)C)CC5)C4=O)cc3c2C(C)C)cc(C)n1 (single isomer, unassigned) [Example 6]	IC50	3.9 nM

I have this compound here, CCc1c(-c2ccnc(C)c2)[nH]c2ccc(N3CCN(C4CCN(CC)CC4)CC3)cc12 , and I need its recorded IC50.
3670 nM

I have this compound here, CCc1c(-c2ccc(OC)c(OC)c2)[nH]c2cc(C(C)C)c(N3CCN(C4CCN(C(C)C)CC4)CC3)cc12 , and I need its recorded IC50.
1160 nM

I have this compound here, CCN1CCN(C2CCN(c3ccc4[nH]c(-c5ccc(OC)c(OC)c5)c(C(C)C)c4c3)CC2)CC1 , and I need its recorded IC50.
50 nM

I have this compound here, CCc1c(-c2ccc(OC)c(OC)c2)[nH]c2ccc(N3CCC(C4CCNCC4)CC3)cc12 , and I need its recorded IC50.
187 nM

I have this compound here, CNCCNC1CCC(Nc2ccc3[nH]c(-c4ccc(OC)c(OC)c4)c(C(C)C)c3c2)CC1 (single isomer, unassigned) [Example 31] , and I need its recorded IC50.
1130 nM

I have this compound here, COc1ccc(-c2[nH]c3ccc(N4CCC(NCCCN(C)C)CC4)cc3c2C(C)C)cc1OC [Example 76] , and I need its recorded IC50.
18 nM

---

- TARGET_UNDER_TEST: UniProtKB Q9NR96
- Sequence (Q9NR96 26-1032): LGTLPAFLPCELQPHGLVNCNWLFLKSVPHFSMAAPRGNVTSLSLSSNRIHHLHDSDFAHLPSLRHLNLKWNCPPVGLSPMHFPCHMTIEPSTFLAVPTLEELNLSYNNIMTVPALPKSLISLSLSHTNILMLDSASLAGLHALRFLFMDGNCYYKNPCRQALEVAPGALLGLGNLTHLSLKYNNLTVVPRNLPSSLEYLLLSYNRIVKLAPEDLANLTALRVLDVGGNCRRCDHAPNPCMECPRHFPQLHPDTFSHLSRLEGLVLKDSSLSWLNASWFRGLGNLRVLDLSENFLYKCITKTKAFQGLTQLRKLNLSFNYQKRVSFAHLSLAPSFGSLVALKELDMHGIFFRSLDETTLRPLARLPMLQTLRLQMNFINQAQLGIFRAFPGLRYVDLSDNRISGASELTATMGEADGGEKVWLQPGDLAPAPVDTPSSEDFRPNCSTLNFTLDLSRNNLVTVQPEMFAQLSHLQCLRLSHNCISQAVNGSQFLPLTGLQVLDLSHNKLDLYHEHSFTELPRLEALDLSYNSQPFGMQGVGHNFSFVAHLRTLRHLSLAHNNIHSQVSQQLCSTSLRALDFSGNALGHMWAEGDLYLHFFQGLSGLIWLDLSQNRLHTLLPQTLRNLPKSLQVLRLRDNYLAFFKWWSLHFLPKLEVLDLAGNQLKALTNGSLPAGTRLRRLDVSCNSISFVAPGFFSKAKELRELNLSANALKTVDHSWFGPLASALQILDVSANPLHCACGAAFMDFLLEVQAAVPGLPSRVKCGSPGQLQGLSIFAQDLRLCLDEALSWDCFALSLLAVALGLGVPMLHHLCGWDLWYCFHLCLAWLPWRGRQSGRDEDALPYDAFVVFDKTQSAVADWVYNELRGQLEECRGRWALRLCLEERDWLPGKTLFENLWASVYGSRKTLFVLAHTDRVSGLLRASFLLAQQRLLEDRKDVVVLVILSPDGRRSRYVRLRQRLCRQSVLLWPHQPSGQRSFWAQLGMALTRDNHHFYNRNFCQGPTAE
- ASSAY_INFO: TLR9 inhibition reporter assay (HEK-Blue SEAP reporter)
- SETTINGS: HEK-Blue cells overexpressing human TLR9; ODN2006 5 nM; 22 hour incubation
pIC50: −log10 of the molar value.
Label 1 when pIC50 is at or above 6; otherwise label -1.

Use these answered entries as a reference point.
MOLECULE	ASSIGNED_LABEL
Cc1c(-c2ccnc3[nH]ccc23)[nH]c2ccc(N3CCC4(CCN(Cc5cccn5C)CC4)CC3)cc12	1
CCc1c(-c2ccnc(C)c2)[nH]c2ccc(N3CCN(C4CCN(C)CC4)CC3)cc12	1
COc1ccc(-c2[nH]c3ccc(NC4CCC(NCCCN(C)C)CC4)cc3c2C(C)C)cc1OC (centres unmarked) [Example 36]	1

State whether the measured pIC50 reaches 6, counting equality as reaching it, for COc1ccc(-c2[nH]c3ccc(NC4CCC(N5CCN(CCN6CCCC6)CC5)CC4)cc3c2C(C)C)cc1OC (centres unmarked) [Example 63]
1

State whether the measured pIC50 reaches 6, counting equality as reaching it, for COc1ccc(-c2[nH]c3ccc(NC(=O)CN)cc3c2C(C)C)cc1OC
-1

State whether the measured pIC50 reaches 6, counting equality as reaching it, for COc1ccc(-c2[nH]c3ccc(NC(=O)[C@H](N)CCC(N)=O)cc3c2C(C)C)cc1OC
-1

---

- TARGET_UNDER_TEST: human TLR7 (Homo sapiens, UniProt Q9NYK1)
- ASSAY_INFO: TLR7 inhibition reporter assay (HEK-Blue SEAP reporter)
- SETTINGS: HEK-Blue cells overexpressing human TLR7; gardiquimod 7.5 μM; 22 hour incubation
IC50 for assorted compounds
Report the value in nM with no unit label.

Some compounds with recorded IC50:
COMPOUND	IC50, nM
Cc1cc(-c2[nH]c3ccc(N4CCC(N5CCN(C(C)C)CC5)C4=O)cc3c2C(C)C)cc(C)n1 (single isomer, unassigned) [Example 5]	6.4
Cc1c(-c2ccnc3[nH]ccc23)[nH]c2ccc(N3CCC4(CCN(Cc5cccn5C)CC4)CC3)cc12 [Example 189]	16100
COc1ccc(-c2[nH]c3ccc(N4CCC(OCCN(C)C)CC4)cc3c2C(C)C)cc1OC [Example 114]	460
COc1ccc(-c2[nH]c3ccc(NC4CCC(NC5CCN(C)CC5)CC4)cc3c2C(C)C)cc1OC (single isomer, unassigned) [Example 40]	43
COc1ccc(-c2[nH]c3ccc(NC4CCC(NCCCN5CCOCC5)CC4)cc3c2C(C)C)cc1OC (stereo not drawn) [Example 56]	136

Give IC50 (human TLR7 (Homo sapiens, UniProt Q9NYK1)) of the following compound: CCc1c(-c2ccnc(OC)c2)[nH]c2ccc(N3CCN(C4CCN(CC)CC4)CC3)cc12 [Example 148]
96

Give IC50 (human TLR7 (Homo sapiens, UniProt Q9NYK1)) of the following compound: COc1ccc(-c2[nH]c3ccc(NC4CCC(N(C)CCCN(C)C)CC4)cc3c2C(C)C)cc1OC (stereo not drawn) [Example 42]
106

Give IC50 (human TLR7 (Homo sapiens, UniProt Q9NYK1)) of the following compound: CCc1c(-c2ccc(OC)c(OC)c2)[nH]c2ccc(NC3CCN(C4CCN(C)CC4)CC3)cc12 [Example 125]
376

Give IC50 (human TLR7 (Homo sapiens, UniProt Q9NYK1)) of the following compound: CC(C)c1c(-c2ccnc3[nH]ncc23)[nH]c2ccc(N3CCNC3=O)cc12 [Example 27]
180

Give IC50 (human TLR7 (Homo sapiens, UniProt Q9NYK1)) of the following compound: COc1ccc(-c2[nH]c3ccc(N4CCC(OC5CCNCC5)CC4)cc3c2C(C)C)cc1OC [Example 133]
16

Give IC50 (human TLR7 (Homo sapiens, UniProt Q9NYK1)) of the following compound: COc1ccc(-c2[nH]c3ccc(N4CCC(C(C)(C)O)CC4)cc3c2C(C)C)cc1OC [Example 110]
194

Give IC50 (human TLR7 (Homo sapiens, UniProt Q9NYK1)) of the following compound: COc1ccc(-c2[nH]c3ccc(NC4CCC(NCCCN5CCOCC5)CC4)cc3c2C(C)C)cc1OC (stereo not drawn) [Example 55]
167

Give IC50 (human TLR7 (Homo sapiens, UniProt Q9NYK1)) of the following compound: CCc1c(-c2ccc(OC)c(OC)c2)[nH]c2ccc(N3CCC(OC4CCN(C)CC4)CC3)cc12 [Example 134]
54

Give IC50 (human TLR7 (Homo sapiens, UniProt Q9NYK1)) of the following compound: COc1ccc(-c2[nH]c3ccc(NC4CCC(NCCN5CCOCC5)CC4)cc3c2C(C)C)cc1OC (stereo not drawn) [Example 47]
222

Give IC50 (human TLR7 (Homo sapiens, UniProt Q9NYK1)) of the following compound: COCCN1CCN(C2CCN(c3ccc4[nH]c(-c5ccc(OC)c(OC)c5)c(C(C)C)c4c3)CC2)CC1 [Example 92]
19
